Target: mGlyT-1b (Mus musculus)
Construct: host or cells: Flp-in-CHO
Sequence (P28571 1-651 isoform P28571-2): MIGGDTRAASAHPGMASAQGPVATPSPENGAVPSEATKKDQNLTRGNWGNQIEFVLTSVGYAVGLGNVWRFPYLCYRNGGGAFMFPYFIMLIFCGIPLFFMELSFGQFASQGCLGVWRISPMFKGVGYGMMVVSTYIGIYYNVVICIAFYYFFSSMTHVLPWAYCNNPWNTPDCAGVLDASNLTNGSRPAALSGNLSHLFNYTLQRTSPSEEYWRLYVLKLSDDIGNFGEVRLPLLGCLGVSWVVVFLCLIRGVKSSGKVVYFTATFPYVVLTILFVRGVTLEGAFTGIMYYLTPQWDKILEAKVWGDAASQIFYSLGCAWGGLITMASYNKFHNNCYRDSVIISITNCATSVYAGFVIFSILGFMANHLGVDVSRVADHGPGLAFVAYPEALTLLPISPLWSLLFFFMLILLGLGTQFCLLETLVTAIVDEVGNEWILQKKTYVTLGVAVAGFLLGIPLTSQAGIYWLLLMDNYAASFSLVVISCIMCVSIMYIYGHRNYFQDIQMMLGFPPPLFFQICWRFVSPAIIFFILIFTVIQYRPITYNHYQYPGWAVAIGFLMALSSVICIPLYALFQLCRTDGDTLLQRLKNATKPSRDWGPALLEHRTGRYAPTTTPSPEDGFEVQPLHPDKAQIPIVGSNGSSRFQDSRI
Assay: Glycine Uptake Inhibition Assay (mGlyT-1b)
Type: cell-based
Settings: [3H]-glycine uptake, Flp-in-CHO cells transfected with mGlyT-1b cDNA, 20 min preincubation at 22° C.; read-out: IC50 (μM) at GlyT-1
IC50 overview
measurement-kind: IC50

mol: O=C(c1cc([N+](=O)[O-])ccc1N1CCOCC1)N1CC=C(c2ccccc2)CC1
assayed-target: mGlyT-1b (Mus musculus)
observed: 0.803 µM
//
mol: CS(=O)(=O)c1ccc(OCC(F)(F)F)c(C(=O)N2CC=C(c3ccc(C(F)(F)F)cc3)CC2)c1
assayed-target: mGlyT-1b (Mus musculus)
observed: 0.122 µM
//
mol: CS(=O)(=O)c1ccc(OCC2CC2)c(C(=O)N2CC=C(c3ccc(Cl)cc3)CC2)c1
assayed-target: mGlyT-1b (Mus musculus)
observed: 0.056 µM
//
mol: O=C(c1cc([N+](=O)[O-])ccc1N1CCOCC1)N1CC=C(c2ccc(Cl)cc2)CC1
assayed-target: mGlyT-1b (Mus musculus)
observed: 0.432 µM
//
mol: CC(C)Oc1ccc(S(C)(=O)=O)cc1C(=O)N1CC=C(c2ccc(S(C)(=O)=O)cc2)CC1
assayed-target: mGlyT-1b (Mus musculus)
observed: 0.87 µM
//
mol: CS(=O)(=O)c1ccc(C2=CCN(C(=O)c3cc(S(C)(=O)=O)ccc3OC3CCCC3)CC2)cc1
assayed-target: mGlyT-1b (Mus musculus)
observed: 0.201 µM
//
mol: CS(=O)(=O)c1ccc(C2=CCN(C(=O)c3cc([N+](=O)[O-])ccc3N3CCOCC3)CC2)cc1
assayed-target: mGlyT-1b (Mus musculus)
observed: 0.251 µM
//
mol: N#Cc1ccc(C2=CCN(C(=O)c3cc([N+](=O)[O-])ccc3N3CCOCC3)CC2)cc1
assayed-target: mGlyT-1b (Mus musculus)
observed: 0.27 µM
//
mol: CC(C)Oc1ccc(C#N)cc1C(=O)N1CC=C(c2ccc(Cl)cc2)CC1
assayed-target: mGlyT-1b (Mus musculus)
observed: 0.28 µM
//
mol: CS(=O)(=O)c1ccc(N2CCOCC2)c(C(=O)N2CC=C(c3ccc(C(F)(F)F)cc3)CC2)c1
assayed-target: mGlyT-1b (Mus musculus)
observed: 0.232 µM
